biological target: UniProt Q9Y233; test: Cell based human PDE10A activity assay - cAMP HTRF assay in HEK 293 rhPDE10A2 cell line; settings: Forskolin 10 μM; read-out: cAMP HTRF Assay in HEK 293 rhPDE10A2 cell line (pIC50) (converted)
# reported IC50; entries follow
attribute measured: IC50 (nM)

>>> reported_measurement("O=C(O)c1cc2ccccc2nc1COc1ccc(-c2n[nH]cc2-c2ccncc2)cc1")
0.347
>>> reported_measurement("Cn1cc(-c2ccncc2)c(-c2ccc(OCc3nc4ccccc4cc3C(=O)N=S(C)(=O)C3CC3)cc2)n1 (centres unmarked)")
0.676
>>> reported_measurement("Cn1cc(-c2ccncc2)c(-c2ccc(OCc3nc4cc(F)ccc4cc3C(=O)N=S(C)(C)=O)cc2)n1")
550
>>> reported_measurement("CNC(=O)Nc1cc(COc2ccc(-c3nn(C)cc3-c3ccncc3)cc2)nc2ccccc12")
3.47
>>> reported_measurement("Cn1cc(-c2ccncc2)c(-c2ccc(OCc3nc(N4CCNCC4)c4ccccc4n3)cc2)n1")
4.57

----------
biological target: Human PDE10A2 (Homo sapiens (Human), UniProt Q9Y233); experiment: Cell based human PDE10A activity assay - cAMP HTRF assay in HEK 293 rhPDE10A2 cell line
Sequence (Q9Y233 267-1055): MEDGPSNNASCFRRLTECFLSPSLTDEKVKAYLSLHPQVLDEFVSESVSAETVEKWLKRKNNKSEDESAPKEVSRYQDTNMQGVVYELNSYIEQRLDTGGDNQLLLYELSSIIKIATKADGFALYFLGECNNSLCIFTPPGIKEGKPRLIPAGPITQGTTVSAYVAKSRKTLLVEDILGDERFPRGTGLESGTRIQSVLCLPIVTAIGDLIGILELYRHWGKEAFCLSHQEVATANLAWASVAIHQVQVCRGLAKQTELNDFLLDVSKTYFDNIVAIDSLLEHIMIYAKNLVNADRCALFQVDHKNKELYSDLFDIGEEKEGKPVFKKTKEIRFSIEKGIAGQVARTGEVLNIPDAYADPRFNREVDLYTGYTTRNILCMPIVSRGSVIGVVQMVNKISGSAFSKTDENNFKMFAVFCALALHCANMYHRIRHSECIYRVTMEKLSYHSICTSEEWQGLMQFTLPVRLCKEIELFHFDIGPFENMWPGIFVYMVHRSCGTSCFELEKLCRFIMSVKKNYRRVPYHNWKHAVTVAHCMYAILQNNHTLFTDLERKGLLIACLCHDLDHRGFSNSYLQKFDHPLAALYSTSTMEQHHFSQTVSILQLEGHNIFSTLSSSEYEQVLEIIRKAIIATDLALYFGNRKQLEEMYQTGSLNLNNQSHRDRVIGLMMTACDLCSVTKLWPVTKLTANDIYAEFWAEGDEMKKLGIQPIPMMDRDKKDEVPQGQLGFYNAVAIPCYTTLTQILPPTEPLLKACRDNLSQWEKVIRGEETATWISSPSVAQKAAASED
Entries and their measured IC50 follow.
attribute measured: IC50 (nM)

>>> reported_measurement("CS(C)(=O)=NC(=O)c1cc2ccccc2nc1COc1ccc(-c2n[nH]cc2-c2ccncc2)cc1 [Example 31]")
13.8
>>> reported_measurement("O=C(O)Cn1cc(-c2ccncc2)c(-c2ccc(OCc3ccc4ccccc4n3)cc2)n1 [Example 5]")
75.9
>>> reported_measurement("Cn1cc(-c2ccncc2)c(-c2ccc(OCc3nc(C(=O)N=S(C)(C)=O)c4ccccc4n3)cc2)n1 [Example 17]")
3.02
>>> reported_measurement("Cn1cc(-c2ccncc2)c(-c2ccc(OCc3nc4ccccc4cc3C(=O)N=S(C)(C)=O)cc2)n1 [Example 10]")
1.1
>>> reported_measurement("Cn1cc(-c2ccncc2)c(-c2ccc(OCc3nc4cccnc4cc3C(=O)N=S(C)(C)=O)cc2)n1 [Example 19]")
5.37
>>> reported_measurement("Cn1cc(-c2ccncc2)c(-c2ccc(OCc3nc4ccccc4nc3N3CCNCC3)cc2)n1 [Example 42]")
12.3

----------
experiment: Determination of CNS penetration in vivo (brain to plasma partitioning, Kpuu); design: species or system Male Sprague Dawley Rats; conditions: male, Sprague-Dawley, brain / plasma (unbound); rat, IV, 1 mg/kg, 10-30 min post dose
Use 0.03 as the dividing line for Kp uu, with the line itself on the Fulfilled side and lower values as Not fulfilled.

>>> classification("Cn1cc(-c2ccncc2)c(-c2ccc(OCc3nc4ccccn4c3C(=O)N=S(C)(C)=O)cc2)n1")
"Fulfilled"
>>> classification("Cn1cc(-c2ccncc2)c(-c2ccc(OCc3nc(C(=O)N=S(C)(C)=O)c4ccccc4n3)cc2)n1")
"Fulfilled"
>>> classification("O=C(O)Cn1cc(-c2ccncc2)c(-c2ccc(OCc3ccc4ccccc4n3)cc2)n1")
"Not fulfilled"
>>> classification("Cn1cc(-c2ccncc2)c(-c2ccc(OCc3cc(C(=O)O)c4ccccc4n3)cc2)n1")
"Fulfilled"
>>> classification("Cn1cc(-c2ccncc2)c(-c2ccc(OCc3nc4ccccc4cc3C(=O)O)cc2)n1")
"Fulfilled"
>>> classification("Cn1cc(-c2ccncc2)c(-c2ccc(OCc3nc4ccccc4cc3C(=O)N=S(C)(C)=O)cc2)n1")
"Not fulfilled"
>>> classification("Cn1cc(-c2ccncc2)c(-c2ccc(OCc3nc4ccccc4cc3C(=O)NS(C)(=O)=O)cc2)n1")
"Fulfilled"
